target: Protein-lysine 6-oxidase (Bos taurus, UniProt P33072); test: Inhibition of LOX in bovine aorta using putrescine as substrate preincubated with enzyme for 30 mins followed by substrate addition and measured every 2.5 mins for 30 mins by Amplex-Red oxidation assay; format: tissue-based; details: read-out: pIC50 (converted)
Sequence (P33072 whole entry): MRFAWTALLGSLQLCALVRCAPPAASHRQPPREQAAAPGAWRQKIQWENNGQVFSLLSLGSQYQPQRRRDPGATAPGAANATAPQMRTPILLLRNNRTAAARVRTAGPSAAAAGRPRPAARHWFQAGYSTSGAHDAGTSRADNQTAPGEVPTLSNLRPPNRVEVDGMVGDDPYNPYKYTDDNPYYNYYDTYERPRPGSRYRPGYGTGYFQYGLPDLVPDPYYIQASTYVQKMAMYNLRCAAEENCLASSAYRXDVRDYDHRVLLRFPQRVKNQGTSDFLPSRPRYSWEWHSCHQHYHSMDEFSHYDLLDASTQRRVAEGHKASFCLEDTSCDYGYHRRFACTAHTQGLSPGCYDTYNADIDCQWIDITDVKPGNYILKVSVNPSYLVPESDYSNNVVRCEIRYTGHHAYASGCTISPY
So basically: is IC50 under 3 µM? Then 1.0. Not under? Then 0.0.

QUERY: Threshold test, IC50 < 3 µM: `Cc1c(-c2cccc(S(=O)(=O)N(C)C)c2)c2ncccc2n1C/C(F)=C/CN.Cl`
RESULT: 1.0

QUERY: Threshold test, IC50 < 3 µM: `CCOC(=O)c1ccc2c(c1)c(-c1cccc(S(=O)(=O)N(C)C)c1)c(C)n2C/C(F)=C/CN.Cl`
RESULT: 0.0

QUERY: Threshold test, IC50 < 3 µM: `CS(=O)(=O)c1ccccc1OCc1cn(C/C(F)=C/CN)nn1`
RESULT: 0.0

QUERY: Threshold test, IC50 < 3 µM: `CN(C)S(=O)(=O)c1ccc(NCc2cn(C/C(F)=C/CN)nn2)cc1.Cl`
RESULT: 1.0

QUERY: Threshold test, IC50 < 3 µM: `Cc1c(-c2cccc(S(=O)(=O)N(C)C)c2)c2ccccc2n1C/C(F)=C/CN.Cl`
RESULT: 1.0

QUERY: Threshold test, IC50 < 3 µM: `CS(=O)(=O)c1ccc(OCc2cn(C/C(F)=C/CN)nn2)cc1`
RESULT: 1.0

QUERY: Threshold test, IC50 < 3 µM: `CN(C)S(=O)(=O)c1ccc(Cc2cn(C/C(F)=C/CN)nn2)cc1.Cl`
RESULT: 1.0

QUERY: Threshold test, IC50 < 3 µM: `CN(C)S(=O)(=O)c1ccc(OCc2cn(C/C(F)=C/CN)nn2)cc1.Cl`
RESULT: 1.0

QUERY: Threshold test, IC50 < 3 µM: `N#CCCN`
RESULT: 1.0

QUERY: Threshold test, IC50 < 3 µM: `Cc1c(-c2ccc(S(=O)(=O)N(C)C)cc2)c2ccccc2n1C/C(F)=C/CN.Cl`
RESULT: 0.0

QUERY: Threshold test, IC50 < 3 µM: `Cc1c(-c2cccc(S(=O)(=O)N(C)C)c2)c2cc(Cl)ccc2n1C/C(F)=C/CN.Cl`
RESULT: 0.0

QUERY: Threshold test, IC50 < 3 µM: `Cc1c(-c2cccc(S(=O)(=O)N(C)C)c2)c2cc(-c3nnn[nH]3)ccc2n1C/C(F)=C/CN.Cl`
RESULT: 0.0

QUERY: Threshold test, IC50 < 3 µM: `Cc1c(-c2cccc(S(=O)(=O)N(C)C)c2)c2ccc(C(=O)N(C)C)cc2n1C/C(F)=C/CN.Cl`
RESULT: 1.0

QUERY: Threshold test, IC50 < 3 µM: `NC/C=C(\F)Cn1cc(COc2ccccc2)nn1`
RESULT: 1.0

QUERY: Threshold test, IC50 < 3 µM: `C[C@H](NS(=O)(=O)c1ccc(OC/C(F)=C/CN)cc1)c1ccccc1`
RESULT: 1.0

QUERY: Threshold test, IC50 < 3 µM: `Cc1c(-c2cccc(S(=O)(=O)N(C)C)c2)c2cc(O)ccc2n1C/C(F)=C/CN.Cl`
RESULT: 1.0

QUERY: Threshold test, IC50 < 3 µM: `Cc1c(-c2cccc(S(=O)(=O)N(C)C)c2)c2cc(C(=O)O)ccc2n1C/C=C/CN.Cl`
RESULT: 0.0

QUERY: Threshold test, IC50 < 3 µM: `CN(C)C(=O)c1ccc(OCc2cn(C/C(F)=C/CN)nn2)cc1`
RESULT: 0.0

QUERY: Threshold test, IC50 < 3 µM: `CN(C)S(=O)(=O)c1ccc(-c2ccn(C/C(F)=C/CN)c2)cc1.Cl`
RESULT: 1.0

QUERY: Threshold test, IC50 < 3 µM: `Cc1c(-c2cccc(S(=O)(=O)N(C)C)c2)c2cc(NS(C)(=O)=O)ccc2n1C/C(F)=C/CN.Cl`
RESULT: 1.0

QUERY: Threshold test, IC50 < 3 µM: `Cc1c(-c2cccc(S(=O)(=O)N(C)C)c2)c2cc(S(C)(=O)=O)ccc2n1C/C(F)=C/CN.Cl`
RESULT: 1.0

---

experiment: Stability in rat plasma assessed as half life; format: ADME, cell-free
readout type: half-life

QUERY: Recorded half-life for `Cc1c(-c2cccc(S(=O)(=O)N(C)C)c2)c2cc(C(=O)O)ccc2n1C/C(F)=C/CN.Cl` , please?
RESULT: > 2 h

---

assay: Stability in rat plasma assessed as half life
readout type: half-life

QUERY: Recorded half-life for `Cc1c(-c2cccc(S(=O)(=O)N(C)C)c2)c2cc(C(=O)O)ccc2n1C/C(F)=C/CN.Cl` , please?
RESULT: > 2 h

---

biological target: Amine oxidase [flavin-containing] A (Homo sapiens, UniProt P21397); assay: Inhibition of recombinant human MAOA expressed in baculovirus infected in BTI cells using tyramine as substrate preincubated with enzyme for 30 mins followed by substrate addition and measured every 2.5 mins for 30 mins by Amplex-Red oxidation assay; conditions: read-out: IC50
Sequence (P21397 whole entry): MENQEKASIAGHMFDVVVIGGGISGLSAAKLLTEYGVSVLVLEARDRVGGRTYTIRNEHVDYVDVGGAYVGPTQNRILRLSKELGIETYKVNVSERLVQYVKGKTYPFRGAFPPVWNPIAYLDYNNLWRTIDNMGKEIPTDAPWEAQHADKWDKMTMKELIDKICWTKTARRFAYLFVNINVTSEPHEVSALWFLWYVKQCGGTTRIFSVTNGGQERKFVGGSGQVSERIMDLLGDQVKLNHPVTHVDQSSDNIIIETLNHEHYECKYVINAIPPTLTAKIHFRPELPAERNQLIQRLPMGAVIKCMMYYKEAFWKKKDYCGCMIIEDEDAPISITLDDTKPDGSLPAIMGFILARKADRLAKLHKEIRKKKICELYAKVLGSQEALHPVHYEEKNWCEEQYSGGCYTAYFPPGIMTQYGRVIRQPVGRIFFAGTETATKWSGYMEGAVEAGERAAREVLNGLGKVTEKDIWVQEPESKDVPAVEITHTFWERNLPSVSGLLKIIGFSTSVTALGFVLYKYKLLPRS
readout type: IC50

QUERY: Recorded IC50 for `Cc1c(-c2cccc(S(=O)(=O)N(C)C)c2)c2cc(C(=O)O)ccc2n1C/C(F)=C/CN.Cl` , please?
RESULT: > 30 µM

---

Biological target: UniProt Q9Y4K0
Sequence (Q9Y4K0 whole entry): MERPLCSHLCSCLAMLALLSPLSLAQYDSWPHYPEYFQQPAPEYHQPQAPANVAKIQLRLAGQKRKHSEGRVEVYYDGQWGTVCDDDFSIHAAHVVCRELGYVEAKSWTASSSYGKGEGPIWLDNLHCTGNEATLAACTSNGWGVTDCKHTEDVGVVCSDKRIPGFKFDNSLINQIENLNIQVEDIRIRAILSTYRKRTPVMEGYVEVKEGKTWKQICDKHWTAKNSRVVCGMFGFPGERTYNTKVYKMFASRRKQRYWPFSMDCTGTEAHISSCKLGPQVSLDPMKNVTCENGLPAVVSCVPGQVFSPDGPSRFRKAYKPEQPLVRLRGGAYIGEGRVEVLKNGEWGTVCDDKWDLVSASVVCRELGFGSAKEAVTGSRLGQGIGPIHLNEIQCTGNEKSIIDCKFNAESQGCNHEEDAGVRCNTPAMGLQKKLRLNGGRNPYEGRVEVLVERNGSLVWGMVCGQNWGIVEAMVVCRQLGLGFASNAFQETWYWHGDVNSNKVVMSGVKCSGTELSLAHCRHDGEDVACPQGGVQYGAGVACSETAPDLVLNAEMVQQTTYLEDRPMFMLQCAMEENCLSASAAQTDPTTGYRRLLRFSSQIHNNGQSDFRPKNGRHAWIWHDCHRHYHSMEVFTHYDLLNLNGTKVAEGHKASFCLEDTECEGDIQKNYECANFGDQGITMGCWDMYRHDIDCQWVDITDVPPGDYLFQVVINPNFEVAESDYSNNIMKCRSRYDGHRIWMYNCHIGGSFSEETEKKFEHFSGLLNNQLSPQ
Experiment: Inhibition of LOXL2 in human IMR90 cells using putrescine as substrate preincubated with enzyme for 30 mins followed by substrate addition and measured every 2.5 mins for 30 mins by Amplex-Red oxidation assay
Format: cell-based
readout type: IC50 (nM)
Give just the number in nM; leave the unit off.

QUERY: Recorded IC50 for `Cc1c(-c2cccc(S(=O)(=O)N(C)C)c2)c2cc(C(=O)O)ccc2n1C/C(F)=C/CN.Cl` , please?
RESULT: 9

---

target: Lysyl oxidase homolog 3 (Homo sapiens, UniProt P58215); test: Inhibition of recombinant C-terminal His-tagged human LOXL3 (1 to 753 residues) expressed in CHO cells using putrescine as substrate preincubated with enzyme for 30 mins followed by substrate addition and measured every 2.5 mins for 30 mins by Amplex-Red oxidation assay
Sequence (P58215 whole entry, the tested form may be a part): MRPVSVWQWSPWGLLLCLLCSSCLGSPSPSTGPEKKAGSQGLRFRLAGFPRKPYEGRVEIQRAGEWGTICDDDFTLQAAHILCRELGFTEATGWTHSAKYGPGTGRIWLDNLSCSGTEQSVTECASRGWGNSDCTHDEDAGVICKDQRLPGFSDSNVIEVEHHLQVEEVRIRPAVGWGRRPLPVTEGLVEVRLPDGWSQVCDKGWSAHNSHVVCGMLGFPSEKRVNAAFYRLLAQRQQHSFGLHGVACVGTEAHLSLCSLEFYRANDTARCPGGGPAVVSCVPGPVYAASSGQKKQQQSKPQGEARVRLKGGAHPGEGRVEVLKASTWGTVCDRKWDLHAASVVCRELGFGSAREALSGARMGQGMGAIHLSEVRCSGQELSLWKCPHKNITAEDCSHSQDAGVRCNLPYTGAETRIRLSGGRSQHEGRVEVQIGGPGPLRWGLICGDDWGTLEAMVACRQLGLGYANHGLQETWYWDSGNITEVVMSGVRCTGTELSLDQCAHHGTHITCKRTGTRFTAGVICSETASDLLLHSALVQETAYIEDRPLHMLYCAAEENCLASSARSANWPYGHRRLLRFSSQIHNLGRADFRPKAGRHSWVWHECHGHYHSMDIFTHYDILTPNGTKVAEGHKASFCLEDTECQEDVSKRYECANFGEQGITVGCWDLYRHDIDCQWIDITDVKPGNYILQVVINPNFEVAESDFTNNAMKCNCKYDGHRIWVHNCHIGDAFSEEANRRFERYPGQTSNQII
readout type: IC50 (nM)
Give just the number in nM; leave the unit off.

QUERY: Recorded IC50 for `Cc1c(-c2cccc(S(=O)(=O)N(C)C)c2)c2cc(C(=O)O)ccc2n1C/C(F)=C/CN.Cl` , please?
RESULT: 16

---

test: Stability in human plasma assessed as half life
readout type: half-life

QUERY: Recorded half-life for `Cc1c(-c2cccc(S(=O)(=O)N(C)C)c2)c2cc(C(=O)O)ccc2n1C/C(F)=C/CN.Cl` , please?
RESULT: > 120 min

---

target: Lysyl oxidase homolog 2 (Homo sapiens, UniProt Q9Y4K0); assay: Inhibition of recombinant human C-terminal His-tagged […] (1-774 residues) expressed in mouse myeloma cells using putrescine as substrate preincubated with enzyme for 30 mins followed by substrate addition and measured every 2.5 mins for 30 mins by Amplex-Red oxidation assay; conditions: read-out: pIC50 (converted)
So basically: is IC50 under 0.1 µM? Then t. Not under? Then f.

QUERY: Threshold test, IC50 < 0.1 µM: `Cc1c(-c2cccc(S(=O)(=O)N(C)C)c2)c2cc(Cl)ccc2n1C/C(F)=C/CN.Cl`
RESULT: f

QUERY: Threshold test, IC50 < 0.1 µM: `Cc1c(-c2cccc(S(=O)(=O)N(C)C)c2)c2cc(NS(C)(=O)=O)ccc2n1C/C(F)=C/CN.Cl`
RESULT: t

QUERY: Threshold test, IC50 < 0.1 µM: `Cc1c(-c2cccc(S(=O)(=O)N(C)C)c2)c2cc(C(=O)N(C)C)ccc2n1C/C(F)=C/CN.Cl`
RESULT: t

QUERY: Threshold test, IC50 < 0.1 µM: `Cc1c(-c2ccc(S(=O)(=O)N(C)C)cc2)c2ccccc2n1C/C(F)=C/CN.Cl`
RESULT: f

QUERY: Threshold test, IC50 < 0.1 µM: `Cc1c(-c2cccc(S(=O)(=O)N(C)C)c2)c2cc(-c3nnn[nH]3)ccc2n1C/C(F)=C/CN.Cl`
RESULT: f

QUERY: Threshold test, IC50 < 0.1 µM: `CN(C)S(=O)(=O)c1ccc(-c2cn(C/C(F)=C/CN)nn2)cc1.Cl`
RESULT: f

QUERY: Threshold test, IC50 < 0.1 µM: `Cc1c(-c2cccc(S(=O)(=O)N(C)C)c2)c2ncccc2n1C/C(F)=C/CN.Cl`
RESULT: t

QUERY: Threshold test, IC50 < 0.1 µM: `CS(=O)(=O)c1ccc(OCc2cn(C/C(F)=C/CN)nn2)cc1`
RESULT: f

QUERY: Threshold test, IC50 < 0.1 µM: `CN(C)S(=O)(=O)c1ccc(NCc2cn(C/C(F)=C/CN)nn2)cc1.Cl`
RESULT: t

QUERY: Threshold test, IC50 < 0.1 µM: `Cc1c(-c2cccc(S(=O)(=O)N(C)C)c2)c2cc(S(C)(=O)=O)ccc2n1C/C(F)=C/CN.Cl`
RESULT: t

QUERY: Threshold test, IC50 < 0.1 µM: `CN(C)S(=O)(=O)c1ccc(Cc2cn(C/C(F)=C/CN)nn2)cc1.Cl`
RESULT: t

QUERY: Threshold test, IC50 < 0.1 µM: `Cc1c(-c2cccc(S(=O)(=O)N(C)C)c2)c2ccc(C(=O)N(C)C)cc2n1C/C(F)=C/CN.Cl`
RESULT: t

QUERY: Threshold test, IC50 < 0.1 µM: `CN(C)S(=O)(=O)c1ccc(OCc2cn(C/C(F)=C/CN)nn2)cc1.Cl`
RESULT: t

QUERY: Threshold test, IC50 < 0.1 µM: `C[C@H](NS(=O)(=O)c1ccc(OC/C(F)=C\CN)cc1)c1ccccc1`
RESULT: f

QUERY: Threshold test, IC50 < 0.1 µM: `Cc1c(-c2cccc(S(=O)(=O)N(C)C)c2)c2cc(C(=O)O)ccc2n1C/C=C/CN.Cl`
RESULT: f

QUERY: Threshold test, IC50 < 0.1 µM: `CN(C)S(=O)(=O)c1ccc(OCc2cn(C/C(F)=C/CN)nn2)c(Cl)c1.Cl`
RESULT: t

QUERY: Threshold test, IC50 < 0.1 µM: `CN(C)S(=O)(=O)c1ccc(-c2ccn(C/C(F)=C/CN)c2)cc1.Cl`
RESULT: f

QUERY: Threshold test, IC50 < 0.1 µM: `CCOC(=O)c1ccc2c(c1)c(-c1cccc(S(=O)(=O)N(C)C)c1)c(C)n2C/C(F)=C/CN.Cl`
RESULT: t

QUERY: Threshold test, IC50 < 0.1 µM: `Cc1c(-c2cccc(S(=O)(=O)N(C)C)c2)c2cc(O)ccc2n1C/C(F)=C/CN.Cl`
RESULT: t

QUERY: Threshold test, IC50 < 0.1 µM: `CS(=O)(=O)c1cccc(OCc2cn(C/C(F)=C/CN)nn2)c1`
RESULT: f

QUERY: Threshold test, IC50 < 0.1 µM: `NC/C=C(\F)Cn1cc(COc2ccccc2)nn1`
RESULT: f

QUERY: Threshold test, IC50 < 0.1 µM: `C[C@H](NS(=O)(=O)c1ccc(OC/C(F)=C/CN)cc1)c1ccccc1`
RESULT: f

QUERY: Threshold test, IC50 < 0.1 µM: `Cc1c(-c2cccc(S(=O)(=O)N(C)C)c2)c2ccc(C(=O)O)cc2n1C/C(F)=C/CN.Cl`
RESULT: f

QUERY: Threshold test, IC50 < 0.1 µM: `CS(=O)(=O)c1ccccc1OCc1cn(C/C(F)=C/CN)nn1`
RESULT: f

QUERY: Threshold test, IC50 < 0.1 µM: `COc1ccc2c(c1)c(-c1cccc(S(=O)(=O)N(C)C)c1)c(C)n2C/C(F)=C/CN.Cl`
RESULT: t

QUERY: Threshold test, IC50 < 0.1 µM: `CC(C)(C)c1ccc(OCc2cn(C/C(F)=C/CN)nn2)cc1`
RESULT: f

QUERY: Threshold test, IC50 < 0.1 µM: `Cc1c(-c2cccc(S(=O)(=O)N(C)C)c2)c2cccc(C(=O)N(C)C)c2n1C/C(F)=C/CN.Cl`
RESULT: f

QUERY: Threshold test, IC50 < 0.1 µM: `CN(C)C(=O)c1ccc(OCc2cn(C/C(F)=C/CN)nn2)cc1`
RESULT: f
